Answer each item with its documented pIC50.
System name: glucosylceramide synthase (GCS) (Homo sapiens (Human), UniProt Q16739)
Sequence (Q16739 whole entry, looked up): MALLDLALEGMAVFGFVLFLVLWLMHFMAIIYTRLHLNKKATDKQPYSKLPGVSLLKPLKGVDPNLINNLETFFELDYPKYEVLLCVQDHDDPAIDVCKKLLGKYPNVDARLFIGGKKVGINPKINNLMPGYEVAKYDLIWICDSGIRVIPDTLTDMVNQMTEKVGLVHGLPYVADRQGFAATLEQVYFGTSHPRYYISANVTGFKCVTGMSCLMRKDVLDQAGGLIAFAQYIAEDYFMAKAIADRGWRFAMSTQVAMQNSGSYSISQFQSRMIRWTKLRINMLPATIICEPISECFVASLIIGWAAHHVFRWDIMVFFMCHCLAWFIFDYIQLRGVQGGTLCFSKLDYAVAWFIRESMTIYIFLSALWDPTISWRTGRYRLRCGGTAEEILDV
Assay explanation: Evaluation of inhibitory activities against GCS (enzyme reaction with A549 cell lysate, NBD C6-ceramide, HPLC fluorescence)
Applied conditions: GCS activity in A549 cell lysate, 37° C. for 90 minutes
Give bare numbers, as −log10 of the molar value.

INSERT INTO measurements (molecule, system_name, readout_name, experimental_result) VALUES
  ('CC(C)c1ccc(-c2ccc3c(c2)CCCC3NC(=O)O[C@@H]2CN3CCC2CC3)cc1 (stereo partly shown)', 'glucosylceramide synthase (GCS) (Homo sapiens (Human), UniProt Q16739)', 'pIC50', 8.21),
  ('COCOc1ccccc1-c1ccc2c(c1)CCCC2NC(=O)O[C@@H]1CN2CCC1CC2 (stereo partly shown)', 'glucosylceramide synthase (GCS) (Homo sapiens (Human), UniProt Q16739)', 'pIC50', 8.10),
  ('CCCOc1c(C)cc(-c2cc3c(cc2OC)C(NC(=O)O[C@@H]2CN4CCC2CC4)C(C)(C)CC3)cc1C (stereo partly shown)', 'glucosylceramide synthase (GCS) (Homo sapiens (Human), UniProt Q16739)', 'pIC50', 8.84),
  ('COc1ccc(-c2cc3c(cc2OC)C(NC(=O)O[C@@H]2CN4CCC2CC4)C(C)(C)CC3)cc1F (stereo partly shown)', 'glucosylceramide synthase (GCS) (Homo sapiens (Human), UniProt Q16739)', 'pIC50', 9.19),
  ('CCCc1ccc(-c2cc3c(cc2OC)C(NC(=O)O[C@@H]2CN4CCC2CC4)C(C)(C)CC3)cc1 (stereo partly shown)', 'glucosylceramide synthase (GCS) (Homo sapiens (Human), UniProt Q16739)', 'pIC50', 9.72);

Provide pIC50 values for the following items, in order.
1. Cc1ccccc1-c1ccc2c(c1)C(NC(=O)O[C@@H]1CN3CCC1CC3)CCC2 (stereo partly shown)
2. COCCOc1ccccc1-c1ccc2c(c1)CCC1(CC1)C2NC(=O)O[C@@H]1CN2CCC1CC2 (stereo partly shown)
3. CC1(C)CCc2cc(-c3ccc(F)c(F)c3F)ccc2C1NC(=O)O[C@@H]1CN2CCC1CC2 (stereo partly shown)
4. COCCOc1ccc(-c2ccc3c(c2)CCC(C)(C)C3NC(=O)O[C@@H]2CN3CCC2CC3)cc1 (stereo partly shown)
5. COc1cccc(-c2ccc3c(c2)CCC2(CC2)C3NC(=O)O[C@@H]2CN3CCC2CC3)c1OC (stereo partly shown)

result:
7.84
8.22
8.54
9.19
7.82

Provide pIC50 values for the following items, in order.
1. O=C(NC1CCCc2ccc(-c3ccc4c(c3)OCO4)cc21)O[C@@H]1CN2CCC1CC2 (stereo partly shown)
2. CCOc1ccc(-c2ccc3c(c2)CCC(C)(C)C3NC(=O)O[C@@H]2CN3CCC2CC3)cc1F (stereo partly shown)
3. COCOc1ccc(-c2ccc3c(c2)CCC2(CC2)C3NC(=O)O[C@@H]2CN3CCC2CC3)cc1 (stereo partly shown)
4. O=C(NC1CCCc2ccc(-c3cc(F)cc(F)c3)cc21)O[C@@H]1CN2CCC1CC2 (stereo partly shown)

result:
[7.12, 8.86, 8.50, 7.20]

Provide pIC50 values for the following items, in order.
1. COCCOc1cccc(-c2ccc3c(c2)C(NC(=O)O[C@@H]2CN4CCC2CC4)C(C)(C)CC3)c1 (stereo partly shown)
2. COc1cc(-c2ccc3c(c2)CCC(C)(C)C3NC(=O)O[C@@H]2CN3CCC2CC3)ccn1 (stereo partly shown)
3. O=C(NC1CCCc2cc(-c3cnc4[nH]ccc4c3)ccc21)O[C@@H]1CN2CCC1CC2 (stereo partly shown)

result:
7.25
8.06
7.50
